Hello, the source for this data is PubChem BioAssay (NCI), in case you need it.

tested on: COLO 205 colon; experiment: NCI-60 one-dose screen, 48 h; settings: 10 µM unless noted
The panel holds about 83,000 compounds, 20% with a hit somewhere; the sample as a whole holds those more often. Calls of active or inactive are those of the source. How the source made its calls: active means growth percent below 10; inactive means the rest.
Select the matching outcome among active, inactive

Some solved entries appear below for comparison.
>>> label_value("N#CC1=C(N)Oc2ccc3ccccc3c2C1c1ccc([N+](=O)[O-])cc1 (stereo not given)")
"inactive"
>>> label_value("CC(=C(c1ccc(OCCN2CCCCC2)cc1)c1ccc(OCCN2CCCCC2)cc1)c1ccc(Cl)cc1")
"active"
>>> label_value("O=C(Nc1ncccc1OCc1ccccc1)NC1CCCCCC1")
"inactive"
>>> label_value("CC1(C)C(N)=Nc2cc(OCCCN3Cc4ccccc4C3)c(OCC3CC3)cc21")
"active"
>>> label_value("COc1cc2c(c(OC)c1OC)C(=O)CC(c1cccc(NC(=O)c3ccc(C#N)cc3)c1)O2 (stereo not given)")
"inactive"

// query I'd appreciate the recorded outcome for Cc1ccc(C=C2C(=O)NC(=O)NC2=O)cc1 from this test.
// result inactive

// query Outcome? CC(C)N1C(=O)/C(=c2\sc3n(c2=O)C2C(NN=3)N(C)C(=O)N2C)c2ccccc21 (stereo not given)
// result inactive

// query Per the records of this test, what outcome belongs to c1nc2ccc(-c3cc4ccc5[nH]ncc5c4c4c3CCCC4)cc2[nH]1 ?
// result inactive

// query Lab log entry: Cc1ccc(C(=O)c2ccc(CC(=O)NN3C(=O)c4ccccc4C3=O)n2C)cc1 — outcome as called in the assay?
// result inactive

// query State the result this test recorded for NC(=O)c1cccc([C@@H]2O[C@H](CO)[C@@H](O)[C@H]2O)c1 .
// result inactive

====

Recorded growth, one value per entry.
tested on: SR leukemia; test: NCI-60 one-dose screen, 48 h (100 = growth as untreated, 0 = no growth, -100 = all killed); details: 10 µM unless noted
The panel holds about 83,000 compounds, 20% with a hit somewhere; the sample as a whole holds those more often.
Number only, in %; omit the unit.

>>> value_reported("CC(C)CCN(CCC(C)C)CC(O)c1cc2c(c3ccccc13)CCCC2 (centres undefined)")
11.8
>>> value_reported("Cc1ccnc(Nc2ccc([N+](=O)[O-])c(NCCN3CCOCC3)n2)c1")
9.97
>>> value_reported("CCN1C(=O)N(CC)C2C1NN=c1s/c(=C\\c3ccc(C(F)(F)F)cc3)c(=O)n12 (centres undefined)")
12.2
>>> value_reported("COc1ccc(-c2cc(-c3ccccc3)nc(N3CCN(CCNc4ccnc5cc(Cl)ccc45)CC3)n2)cc1")
7.06
>>> value_reported("C=C1C(=O)O[C@H]2[C@H]1CC/C(COC(=O)/C=C\\C(=O)NCc1ccc(Cn3c(=O)sn(CCCl)c3=O)cc1)=C\\CC[C@@]1(C)O[C@@H]21")
15.5

Item CS(=O)(=O)c1nnc(-c2ccccc2)s1 ; assay system SR leukemia; growth reported as 40.3

Known value: SR leukemia growth of the molecule Cn1cc(-c2nn3cc(-c4cccs4)nc3s2)c2cc(F)ccc21 equals 11.8

Summary line: CCOC(=O)c1c(C)nc2c(c1N)/C(=C/c1ccc(OC)cc1)C(=O)N2Cc1ccccc1 , SR leukemia, reported growth = 22.1

Bench note, SR leukemia: CN(C)S(=O)(=O)Oc1ccc(-c2sc3cc(OS(=O)(=O)N(C)C)ccc3c2C(=O)c2ccc(OCCN3CCCCC3)cc2)cc1 , growth reads -20.2

====

test system: BT-549 breast; experiment: NCI-60 one-dose screen, 48 h (100 = growth as untreated, 0 = no growth, -100 = all killed); settings: 10 µM unless noted
This is part of a sample that, as a whole, favours compounds with a hit. Of some 83,000 tested, about 20% had one in any assay. The source made the active and inactive calls. The calls were made as follows: active = growth percent below 10; inactive = the rest.
assay.metric: growth

Example compounds with recorded growth:
>>> value_reported("COc1ccccc1C(=O)Nc1cccc(NC(=O)c2ccoc2C)c1")
"44% (inactive)"
>>> value_reported("CN(Cc1ccccc1)c1nc(Cl)c(C2CC(c3ccccc3)=NN2c2ccccc2)s1 (centres undefined)")
"118% (inactive)"
>>> value_reported("N#Cc1cncc(-c2ccc3ncnc(Nc4cccc(Cl)c4)c3c2)c1")
"69.7% (inactive)"

growth reading for OCCNCCNC(Cc1ccc(Cl)cc1)c1ccccc1 (centres undefined) : 79.7% (inactive)

Entry CCN1CCN(CC(=O)Nc2ccc(-c3cn4c(n3)sc3cc(Oc5ccnc(C(=O)NC)c5)ccc34)cc2)CC1 ; growth = 57.2% (inactive)

growth reading for COc1ccc2[nH]cc(-c3nc(-c4c[nH]c5c(Cl)nccc45)cs3)c2c1 : 51.3% (inactive)

# compound O=C(CCCCCCN1CC(=O)N2[C@H](c3ccc(Cl)cc3)c3[nH]c4ccccc4c3C[C@@H]2C1=O)NO ; its growth = 74.7% (inactive)

The compound identified as COc1cccc(/C=C/C(=O)c2cccc(Nc3nc(Nc4ccccc4)nc(Nc4ccccc4)n3)c2)c1 registered its growth at 99% (inactive)

Record NS(=O)(=O)c1ccc(NC(=O)/C(=C\c2ccc(Cl)cc2Cl)NC(=O)c2ccccc2)cc1 . Reported growth: 89.1% (inactive)

====

tested on: MDA-MB-435 melanoma; test: NCI-60 one-dose screen, 48 h (100 = growth as untreated, 0 = no growth, -100 = all killed); conditions: 10 µM unless noted
About 83,000 compounds went through this panel and 20% of them were active in at least one assay; those are over-represented in the sample as a whole.
This listing pairs molecules with measured growth.
Record the value in %, omitting the unit from your answer.

Illustrative cases are given below, each with its answer.
>>> value_reported("C=C(C)[C@@H]1CC[C@]2(C)[C@H](CC=C3[C@@H]4CC(C)(C)CC[C@]4(CO)CC[C@]32C)[C@@]1(C)CCCN")
-84
>>> value_reported("C=CC(=O)Nc1ccc(Nc2nccc(-c3ccc(N4CCCC4)c(C#N)c3)n2)cc1")
-11.8

Query Nc1nc(NC(=O)Nc2ccc(C(=O)O)cc2)nn1-c1ccc(S(N)(=O)=O)cc1 on MDA-MB-435 melanoma; growth returned: 98.2

For the molecule O=C(/C=C/C12c3ccccc3C(c3ccccc31)C1C(=O)NC(=O)C12)c1ccc(Br)cc1 (stereo unspecified) , the measured growth on MDA-MB-435 melanoma was 18.5

The recorded growth with MDA-MB-435 melanoma for Cc1ccc(-c2csc(NC(=O)c3ccccc3CN3C(=O)c4ccccc4C3=O)n2)cc1 was 95.3

# lookup: OCCNCCNC(Cc1ccc(Cl)cc1)c1ccccc1 (stereo unspecified) on MDA-MB-435 melanoma, growth = 98.6

Measured on MDA-MB-435 melanoma, O=c1c2ccccc2c(=O)c2c1sc1c(=O)c3ccc(O)cc3c(=O)c12 has a documented growth of -86.2

Noted growth for CC/C=C\C[C@H](O)C/C=C1/C(=O)C=C[C@@H]1C/C=C\CCCC(=O)O , tested on MDA-MB-435 melanoma: 36.9

COc1ccc(C(=O)Cn2c(C(=O)c3ccc(Cl)cc3)nc3ccccc32)cc1 tested on MDA-MB-435 melanoma gave growth: -8.55

Here CC(=O)O[C@H]1C[C@@H]2C(C)(C)C(=O)CC[C@@]2(C)c2ccc(C(C)C)cc21 was tested on MDA-MB-435 melanoma, and its growth came to 100

// growth (MDA-MB-435 melanoma) for Nc1nc2c(c3ncccc13)C(c1cccc(Cl)c1)Cc1ncccc1-2 (stereo unspecified) = -57.9

Entry CCN1CCN(CCNc2nccc(-c3c(-c4ccc(F)c(OC)c4)nc4sccn34)n2)S1(=O)=O under MDA-MB-435 melanoma had growth of 26.6

====

Parameter: growth. Scope: all listed entries.
system: IGROV1 ovarian; assay: NCI-60 one-dose screen, 48 h (100 = growth as untreated, 0 = no growth, -100 = all killed); conditions: 10 µM unless noted
The panel holds about 83,000 compounds, 20% with a hit somewhere; the sample as a whole holds those more often. Calls of active or inactive are those of the source. The calls were made as follows: active = growth percent below 10; inactive = the rest.

Consider the following illustrative entries.
>>> value_reported("CN(Cc1cnc2nc(N)nc(N)c2n1)c1ccc(C(=O)NC(CCC(=O)O)C(=O)O)cc1Br (centres undefined)")
"40.9% (inactive)"
>>> value_reported("N#C/C(=C\\c1ccc(-c2cccc(C(F)(F)F)c2)o1)c1ccccc1")
"59.9% (inactive)"

Lab note: measured growth of O=C(NC1CC(F)C1)c1cc2cccnc2n1-c1ccc(Cl)c(Cl)c1 (centres undefined) was 86.7% (inactive)

Value of measured growth for the entry COc1ccc(-c2nc(-c3cn(C)c4ncccc34)cs2)cc1 : 17.9% [100 µM] (inactive)

Looking up COc1cc(/C=C/C(=O)/C=C(O)/C=C/c2ccc(OC(=O)C34CC5CC(CC(C5)C3)C4)c(OC)c2)ccc1OC(=O)C12CC3CC(CC(C3)C1)C2 , I found its growth recorded as 92.5% (inactive)

Reported growth for O=C1/C=C/[C@@H](O)[C@@H]2C[C@@H](O)C[C@H]2/C=C/CCC[C@@H](O)CCO1 was 108% (inactive)

The molecule COc1cccc(-c2cc(-c3cccc(Cl)c3)c(C#N)c(=O)[nH]2)c1 showed growth equal to 71.8% (inactive)

Reported growth for N=C(N)c1ccc(-c2ccc(-c3cc(Cl)cc(Cl)c3)s2)nc1 was 46.7% (inactive)

growth in this record for CC1=C(C(=O)Nc2ccccc2)C(c2ccc3c(c2)OCO3)NC(=S)N1 (centres undefined) : 103% (inactive)
